# experimental_details: in vivo
# test_settings: CD1 nude, mouse, 0.5 nmol/mouse, total radioactivity, Lung uptake

[
  {
    "compound": "Cc1ccc(CCCC(=O)NCCCCCCCC(=O)NCCCC[C@H](NC(=O)CN2CCN(CC(=O)O)CCN(CC(=O)O)CCN(CC(=O)O)CC2)C(=O)N[C@@H](CC(=O)O)C(=O)N[C@@H](CC2CCCCC2)C(=O)N[C@@H](Cc2ccccc2)C(=O)N[C@H](CO)C(=O)N[C@H](CCCNC(=N)N)C(=O)N[C@@H](Cc2ccc(O)cc2)C(=O)N[C@@H](CC(C)C)C(=O)N[C@@H](Cc2c[nH]c3ccccc23)C(=O)N[C@@H](CO)C(N)=O)cc1 [[^177Lu]Lu-uPAR-12, metal not drawn]",
    "display_unit": "%ID/g",
    "tissue uptake at 24 h": 2.6
  },
  {
    "compound": "Cc1ccc(CCCC(=O)NCCOCCOCCOCCOCCOCCC(=O)NCCCC[C@H](NC(=O)CN2CCN(CC(=O)O)CCN(CC(=O)O)CCN(CC(=O)O)CC2)C(=O)N[C@@H](CC(=O)O)C(=O)N[C@@H](CC2CCCCC2)C(=O)N[C@@H](Cc2ccccc2)C(=O)N[C@H](CO)C(=O)N[C@H](CCCNC(=N)N)C(=O)N[C@@H](Cc2ccc(O)cc2)C(=O)N[C@@H](CC(C)C)C(=O)N[C@@H](Cc2c[nH]c3ccccc23)C(=O)N[C@@H](CO)C(N)=O)cc1 [[^177Lu]Lu-uPAR-18, metal not drawn]",
    "display_unit": "%ID/g",
    "tissue uptake at 24 h": 0.29
  },
  {
    "compound": "Cc1ccc(CCCC(=O)NCCOCCOCCOCCC(=O)NCCCC[C@H](NC(=O)CN2CCN(CC(=O)O)CCN(CC(=O)O)CCN(CC(=O)O)CC2)C(=O)N[C@@H](CC(=O)O)C(=O)N[C@@H](CC2CCCCC2)C(=O)N[C@@H](Cc2ccccc2)C(=O)N[C@H](CO)C(=O)N[C@H](CCCNC(=N)N)C(=O)N[C@@H](Cc2ccc(O)cc2)C(=O)N[C@@H](CC(C)C)C(=O)N[C@@H](Cc2c[nH]c3ccccc23)C(=O)N[C@@H](CO)C(N)=O)cc1 [[^177Lu]Lu-uPAR-15, metal not drawn]",
    "display_unit": "%ID/g",
    "tissue uptake at 24 h": 0.27
  },
  {
    "compound": "Cc1ccc(CCCC(=O)NCCOCCOCCOCCOCCC(=O)NC[C@H](NC(=O)CN2CCN(CC(=O)O)CCN(CC(=O)O)CCN(CC(=O)O)CC2)C(=O)N[C@@H](CC(=O)O)C(=O)N[C@@H](CC2CCCCC2)C(=O)N[C@@H](Cc2ccccc2)C(=O)N[C@H](CO)C(=O)N[C@H](CCCNC(=N)N)C(=O)N[C@@H](Cc2ccc(O)cc2)C(=O)N[C@@H](CC(C)C)C(=O)N[C@@H](Cc2c[nH]c3ccccc23)C(=O)N[C@@H](CO)C(N)=O)cc1 [[^177Lu]Lu-uPAR-14, metal not drawn]",
    "display_unit": "%ID/g",
    "tissue uptake at 24 h": 0.3
  },
  {
    "compound": "Cc1ccc(CCCC(=O)NCCOCCOCCOCCOCCC(=O)NCCCC[C@H](NC(=O)CN2CCN(CC(=O)O)CCN(CC(=O)O)CCN(CC(=O)O)CC2)C(=O)N[C@@H](CC(=O)O)C(=O)N[C@@H](CC2CCCCC2)C(=O)N[C@@H](Cc2ccccc2)C(=O)N[C@H](CO)C(=O)N[C@H](CCCNC(=N)N)C(=O)N[C@@H](Cc2ccc(O)cc2)C(=O)N[C@@H](CC(C)C)C(=O)N[C@@H](Cc2c[nH]c3ccccc23)C(=O)N[C@@H](CO)C(N)=O)cc1 [[^177Lu]Lu-uPAR-11, metal not drawn]",
    "display_unit": "%ID/g",
    "tissue uptake at 24 h": 0.29
  },
  {
    "compound": "Cc1ccc(CCCC(=O)NCCOCCOCCOCCOCCC(=O)NCCCC[C@H](NC(=O)CC[C@H](C(=O)O)N2CCN(CC(=O)O)CCN(CC(=O)O)CCN(CC(=O)O)CC2)C(=O)N[C@@H](CC(=O)O)C(=O)N[C@@H](CC2CCCCC2)C(=O)N[C@@H](Cc2ccccc2)C(=O)N[C@H](CO)C(=O)N[C@H](CCCNC(=N)N)C(=O)N[C@@H](Cc2ccc(O)cc2)C(=O)N[C@@H](CC(C)C)C(=O)N[C@@H](Cc2c[nH]c3ccccc23)C(=O)N[C@@H](CO)C(N)=O)cc1 [[^177Lu]Lu-uPAR-17, metal not drawn]",
    "display_unit": "%ID/g",
    "tissue uptake at 24 h": 0.12
  }
]
